The measured values listed here are drawn from PubChem BioAssay.

Exercise: for every item that follows, state its recorded inhibition.
assay: inhibitors of Chlamydomonas gravitaxis, primary screen, whole organism, Chlamydomonas reinhardtii, WT vs cilia-less mutant, absorbance, 96-well (AID 463189); settings: OD600 absorbance, 2 days, at 10 µM, hits give high values;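 also: 0% = wild type cc124 cells in DMSO and 100% = ciliumless bld1 mutant cells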
Numbers only, in %.

INSERT INTO assay_data (compound, numeric_readout) VALUES
  ('Cc1cc(C(F)(F)F)nn1CC(=O)NCC1CCCO1 (stereo not drawn)', 12.4),
  ('COc1ccc(C2CC(C(F)(F)F)n3ncc(C(=O)NCC4CCCO4)c3N2)cc1OC (stereo not drawn)', -9.44),
  ('O=c1[nH]nc2n1CCCCC2', 11.3),
  ('CCC(C)n1ncn(-c2ccc(N3CCN(c4ccc(OCC5COC(Cn6cncn6)(c6ccc(Cl)cc6Cl)O5)cc4)CC3)cc2)c1=O (stereo not drawn)', 5.29),
  ('CC(=O)OCC(=O)[C@H]1CC[C@H]2[C@@H]3CC=C4C[C@@H](O)CC[C@]4(C)[C@H]3CC[C@]12C', 35);

Can you give me inhibition for all of these, one by one?
1. COc1cc(/C=C/C(=O)CC(=O)/C=C/c2ccc(O)c(OC)c2)ccc1O
2. CCn1cc(C(=O)NCC2CCCO2)c(=O)c2cc(F)c(N3CCN(C)CC3)cc21 (stereo not drawn)
3. N/C(CCCN1CCCCC1)=N/O
4. CCOc1ccc(-c2nn3c(-c4ccc(OC)cc4)nnc3s2)cc1
5. CCOC(=O)c1c(C)[nH]c(/C(C)=N/O)c1C
6. CN1CCCN=C1COC(=O)C(O)(c1ccccc1)C1CCCCC1 (stereo not drawn)
7. CCCCOC(=O)Nc1ccc(S(=O)(=O)Nc2nc(C)cc(C)n2)cc1

Response:
1: 102; 2: 4.63; 3: 12.2; 4: 5.79; 5: 87.2; 6: -8.88; 7: -15.6

Can you give me inhibition for all of these, one by one?
1. CC(C)C[C@H](NC(=O)[C@@H]1O[C@H]1C(=O)O)C(=O)NCCCCN=C(N)N
2. COc1ccccc1C1/C(=C(/O)c2cnn(-c3ccccc3)c2C)C(=O)C(=O)N1CCN(C)C (stereo not drawn)
3. O=S(=O)(c1cccc2cnccc12)N1CCCNCC1
4. Cc1ccc2c(c1)[C@@H]1CN(C)CC[C@@H]1N2S(=O)(=O)c1ccc(F)cc1
5. Cn1cc(C(=O)NCN2CCCCC2)c2ccccc21
6. O=S(=O)(O)c1nc2ccccc2n1Cc1ccc(Cl)cc1Cl

Response:
9.72
-1.15
0.327
10.5
-12.4
27.2
